// reported half-life at 100 μM per item
test: Pharmacokinetic study of baicalin in HepG2 cells (intracellular concentrations by UPLC-MS/MS); assay type: in vitro ADME, human; conditions: human, HepG2 cells, intracellular, HepG2 cells given 100 μM baicalin + M PEG400 (0.5%)
# value in h; strip the unit string

# molecule, measurement.type, result.number
data = [
    ("O=c1cc(-c2ccccc2)oc2cc(O)c(O)c(O)c12", "half-life at 100 μM", 9.4),
]

QUERY: Please supply the value of reported half-life at 100 μM for the item O=C(O)[C@H]1O[C@@H](Oc2cc3oc(-c4ccccc4)cc(=O)c3c(O)c2O)[C@H](O)[C@@H](O)[C@@H]1O [BG, Baicalein-7-O-β-D-glucuronide]
RESULT: 6.02

====

Molecular target: BCRP (Homo sapiens, UniProt Q9UNQ0)
Construct: expressed in transfected cells; host or cells: MDCK II
Sequence (Q9UNQ0 1-655): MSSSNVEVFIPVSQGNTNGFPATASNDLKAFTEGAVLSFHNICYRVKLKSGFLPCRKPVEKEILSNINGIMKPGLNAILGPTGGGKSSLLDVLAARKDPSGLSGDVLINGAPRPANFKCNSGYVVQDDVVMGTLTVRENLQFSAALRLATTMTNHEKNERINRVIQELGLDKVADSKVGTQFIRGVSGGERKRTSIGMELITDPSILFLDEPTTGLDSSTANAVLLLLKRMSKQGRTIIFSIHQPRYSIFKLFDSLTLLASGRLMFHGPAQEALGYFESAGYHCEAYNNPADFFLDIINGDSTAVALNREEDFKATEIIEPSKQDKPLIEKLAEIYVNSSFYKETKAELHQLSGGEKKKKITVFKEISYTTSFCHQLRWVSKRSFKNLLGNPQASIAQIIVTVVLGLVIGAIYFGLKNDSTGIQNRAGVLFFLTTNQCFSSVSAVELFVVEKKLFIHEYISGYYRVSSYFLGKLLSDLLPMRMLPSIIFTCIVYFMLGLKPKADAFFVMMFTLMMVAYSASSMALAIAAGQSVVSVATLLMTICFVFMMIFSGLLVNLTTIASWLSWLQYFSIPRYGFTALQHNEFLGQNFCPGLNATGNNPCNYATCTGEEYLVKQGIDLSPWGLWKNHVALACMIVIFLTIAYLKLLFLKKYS
Assay: Transport of baicalin across MDCK II-BCRP cell monolayer (transwell)
Type: in vitro ADME
Conditions: pH 7.4, MDCK II-BCRP, 100 μM BG + 0.5% PEG400, read-out: ER
measurement.type: efflux ratio at 120 min, 100 μM
// print number alone

QUERY: Give BCRP (Homo sapiens, UniProt Q9UNQ0) efflux ratio at 120 min, 100 μM for the following molecule: O=C(O)[C@H]1O[C@@H](Oc2cc3oc(-c4ccccc4)cc(=O)c3c(O)c2O)[C@H](O)[C@@H](O)[C@@H]1O [BG, Baicalein-7-O-β-D-glucuronide]
RESULT: 1.02

====

Test: Transport of baicalin across MDCK II-WT cell monolayer (transwell)
Assay type: in vitro ADME
Conditions: dog, MDCK, pH 7.4, MDCK II-WT; 100 μM BG + 0.5% PEG400
Experimental: The cells were inoculated at a density of 0.5 mL (1 × 10^5) in the upper layer of the transwell plate (AP side), and the culture was changed daily after the lower layer was added with 1.5 mL of complete medium without cells every other day. […] The electrical resistance of the cell monolayer compartments was measured with a resistivity meter (TEER), and the integrity of the cell monolayer was monitored using TEER. […]
measurement.type: Papp B→A at 120 min, 100 μM (×10⁻⁶ cm/s)
# value in ×10⁻⁶ cm/s; strip the unit string

QUERY: Please supply the value of reported Papp B→A at 120 min, 100 μM for the item O=C(O)[C@H]1O[C@@H](Oc2cc3oc(-c4ccccc4)cc(=O)c3c(O)c2O)[C@H](O)[C@@H](O)[C@@H]1O [BG, Baicalein-7-O-β-D-glucuronide]
RESULT: 6.78
